Parameter melting point: see the listing below.

Some entries whose results are on file:
>>> recorded_measurement("COc1cccc(-c2nnc(-c3ccoc3)o2)c1 [Compound 134OD25-32]")
"70 to 71 °C"
>>> recorded_measurement("Cc1cccc(-c2nnc(-c3cccc(C)c3)o2)c1 [Compound 134OD25-40, 2,5-Bis (3-tolyl)-1,3,4-oxadiazole]")
"82 to 83 °C"
>>> recorded_measurement("COc1cccc(-c2cc(-c3ccoc3)on2)c1 [IX35-9]")
"36 to 37 °C"
>>> recorded_measurement("CN(C)c1ccc(-c2nnc(-c3ccccc3)o2)cc1 [Compound 134OD25-15]")
"135 to 140 °C"

# input for lookup
The compound identified as c1ccc(-c2nnc(-c3cc4ccccc4o3)o2)cc1 [Compound 134OD25-28] registered its melting point at 148 to 149 °C

* * *

endpoint: melting point

For orientation, consider the following solved cases.
>>> recorded_measurement("C(=C\\c1nnc(-c2ccccc2)o1)/c1ccco1")
"127 to 130 °C"
>>> recorded_measurement("CSc1ccc(-c2nnc(-c3ccccc3)o2)cc1")
"120 to 122 °C"

Record summary for Cc1ccc(-c2nnc(-c3ccco3)s2)cc1 : reported melting point = 110 to 113 °C

* * *

- Tested on: promoter region of the gene encoding human apoAI
- run description: Activity to enhance the production of human apoAI: apoAI promoter-luciferase reporter assay in HepG2 cells
- Format: cell-based
- measurement conditions: minimum effective dose: concentration that intensified luciferase activity twice compared to control, 24 hours incubation, 0 to 10 μg/mL, read-out: MED
- Protocol: Activity to Enhance the Production of Human apoAI The promoter region of the gene encoding human apoAI was isolated and ligated upstream the structure gene of firefly luciferase to construct a reporter plasmid. […] After further incubation for 24 hours, the cells were added with a luciferase assay reagent (Piccagene LT 7.5 registered trade mark, Toyo Ink, KK), and the luciferase activity was determined using a luminometer (MicroBetaTM TRILUX, 1 sec/well, Wallac). […]
Below, each of the compounds is paired with its reported EC (2-fold luciferase activity) value.
Express it in µM; write the number only.

The measured EC (2-fold luciferase activity) associated with COc1ccc(-c2nc(-c3ccco3)cs2)cc1 reads 1.2

Measured EC (2-fold luciferase activity), COc1ccc(-c2cc(-c3ccc(OC)cc3)n(C)n2)cc1 : 0.41

// sample CN(C)c1ccc(-c2nnc(-c3ccccc3)o2)cc1 , its EC (2-fold luciferase activity) was 0.27

Note to self: EC (2-fold luciferase activity) recorded for COc1ccc(-n2nnc(-c3ccccc3)n2)cc1 was 0.22

* * *

- System: promoter region of the gene encoding human apoAI
- run description: Activity to enhance the production of human apoAI: apoAI promoter-luciferase reporter assay in HepG2 cells
- Assay type: cell-based
- measurement conditions: minimum effective dose: concentration that intensified luciferase activity twice compared to control, 24 hours incubation, 0 to 10 μg/mL, read-out: MED
Please assign NO whenever EC (2-fold luciferase activity) is at or above 0.8 µM, and YES whenever it is below.

Solved cases below.
>>> category("COc1cccc(-c2nnc(N3CCOCC3)s2)c1")
"NO"
>>> category("Cc1ccc(-c2csc(-c3ccccc3)n2)cc1")
"YES"
>>> category("Cc1ccc(-c2nnn(-c3ccc(Cl)cc3)n2)cc1")
"YES"
>>> category("Clc1ccc(-c2nnn(-c3ccc(Cl)cc3)n2)cc1")
"YES"
>>> category("c1ccc(-c2nnc(-c3cc4ccccc4o3)o2)cc1")
"NO"
>>> category("c1ccc(-c2coc(-c3ccccc3)n2)cc1")
"NO"
>>> category("CSc1ccc(-c2nnc(-c3ccccc3)o2)cc1")
"YES"
>>> category("c1ccc(-c2cn(-c3ccccc3)nn2)cc1")
"YES"

Q: Report whether reported EC (2-fold luciferase activity) is lower than 0.8 µM (strictly) for c1ccc(-c2cc(-c3ccccc3)on2)cc1
A: YES
